molecular target: SIK2 (Homo sapiens); assay: SIK2 Enzymatic Assay High Version 2 (High ATP); assay type: biochemical
Would you mind telling me the reported IC50 of each entry?
Lab book: enter the figure in µM, no units written.

Please indicate IC50 recorded for CCN1CC[C@@H]1COc1cnc(C)cc1-c1ccn2nc(NC(=O)C3CC3)cc2c1 [Example 451]
0.0182

Please indicate IC50 recorded for N#Cc1cc(-c2ccn3nc(NC(=O)C4CC4)cc3c2)c(OC[C@@H]2CC[C@H](N)C2)cn1 [Example 20]
0.0102

Please indicate IC50 recorded for N#Cc1ccc(OC[C@@H]2CCNC2)c(-c2ccn3nc(NC(=O)C4CC4)cc3c2)c1 [Example 476]
0.0556

Please indicate IC50 recorded for Cc1cc(-c2ccn3nc(Nc4cc(C)nc(C)n4)cc3c2)c(OCC(C)(C)O)nn1 [Example 600]
0.207

Please indicate IC50 recorded for C[C@@](O)(COc1cnc(C#N)cc1-c1ccn2nc(NC(=O)C3CC3)cc2c1)C(F)(F)F (single isomer, unassigned) [Example 49]
0.0252

Please indicate IC50 recorded for N#Cc1ccc(OC[C@H]2CNCCO2)c(-c2ccn3nc(NC(=O)C4CC4)cc3c2)c1 [Example 101]
0.0219

Please indicate IC50 recorded for CN1[C@@H]2CC[C@H]1C[C@@H](Oc1cnc(C#N)cc1-c1ccn3nc(NC(=O)C4CC4)cc3c1)C2 [Example 66]
0.0085

Please indicate IC50 recorded for CCOc1cnc(C#N)cc1-c1ccn2nc(NC(=O)C3CC3)cc2c1 [Example 583]
0.0611

Please indicate IC50 recorded for Cc1cc(-c2ccn3nc(Nc4ccn(C)n4)cc3c2)c(OC[C@H]2CNCCO2)cn1 [Example 429]
0.0122

Please indicate IC50 recorded for CC#Cc1cc(-c2ccn3nc(NC(=O)C4CC4)cc3c2)c(OC[C@@H]2CCN(C)C2)cn1 [Example 441]
0.0121

Please indicate IC50 recorded for Cc1cc(-c2ccn3nc(NC(=O)C4CC4)cc3c2)c(O[C@@H]2CN(C)[C@@H]2C)cn1 (relative stereo) [Example 455]
0.0356

Please indicate IC50 recorded for Cc1cc(-c2ccn3nc(NC(=O)C4CC4)cc3c2)c(O[C@H]2C[C@@](C)(N)C2)cn1 [Example 517]
0.016

Please indicate IC50 recorded for CN1[C@@H]2CC[C@H]1C[C@@H](COc1cnc(C#N)cc1-c1ccn3nc(NC(=O)C4CC4)cc3c1)C2 [Example 83]
0.0567

Please indicate IC50 recorded for N#Cc1cc(-c2ccn3nc(NC(=O)C4CC4)cc3c2)c(OC[C@@H]2CCCNC2)cn1 [Example 585]
0.0169

Please indicate IC50 recorded for COCCN1CC[C@@H](Oc2cnc(C#N)cc2-c2ccn3nc(NC(=O)C4CC4)cc3c2)C1 [Example 111]
0.0479

Please indicate IC50 recorded for [2H]C([2H])([2H])N1[C@@H]2COC[C@H]1C[C@@H](Oc1cnc(C)cc1-c1ccn3nc(NC(=O)C4CC4)cc3c1)C2 [Example 462]
0.00741

Please indicate IC50 recorded for Cc1cc(-c2ccn3nc(NC(=O)C4CC4)cc3c2)c(OCC2NCC2(F)F)cn1 (racemic) [Example 469]
0.00448

Please indicate IC50 recorded for Cc1cc(-c2ccn3nc(Nc4cnn(C(F)F)c4)cc3c2)c(O[C@H]2C[C@H]3COC[C@@H](C2)N3)cn1 [Example 117]
0.000904

Please indicate IC50 recorded for CC(C)(O)CNc1cnc(C#N)cc1-c1ccn2nc(NC(=O)C3CC3)cc2c1 [Example 81]
0.278

Please indicate IC50 recorded for Cc1cc(-c2ccn3nc(Nc4nn(C)cc4F)cc3c2)c(O[C@H]2C[C@H]3COC[C@@H](C2)N3)cn1 [Example 399]
0.0442

Please indicate IC50 recorded for Cc1cc(-c2ccn3nc(NC(=O)C4CC4)cc3c2)c(OCC2(N)COC2)cn1 [Example 144]
0.0364

Please indicate IC50 recorded for CN1CC[C@@H](COc2cnc(C#N)cc2-c2ccn3nc(Nc4ccccc4)cc3c2)C1 [Example 106]
0.0485

Please indicate IC50 recorded for C[C@@H](Oc1ccc(C#N)cc1-c1ccn2nc(NC(=O)C3CC3)cc2c1)[C@@H]1CNCCO1 (single isomer, unassigned) [Example 477]
0.0507

Please indicate IC50 recorded for N#Cc1cc(-c2ccn3nc(NC(=O)C4CC4)cc3c2)c(OC[C@@H](O)C(F)(F)F)cn1 [Example 96]
0.016

Please indicate IC50 recorded for Cc1cc(-c2ccn3nc(Nc4cc(C)c(=O)n(C)n4)cc3c2)c(OC2C[C@H]3COC[C@@H](C2)N3)cn1 (some centres unmarked) [Example 337]
0.00148

Please indicate IC50 recorded for N#Cc1cc(-c2ccn3nc(NC(=O)C4CC4)cc3c2)c(O[C@@H]2CCN[C@H](C(F)(F)F)C2)cn1 (single isomer, unassigned) [Example 8]
0.00751

Please indicate IC50 recorded for Cc1cc(-c2ccn3nc(NC(=O)C4CC4)cc3c2)c(O[C@@H]2CCN(C)C2)cn1 [Example 137]
0.07

* * *

target: SIK2 (Homo sapiens, UniProt Q9H0K1); assay: SIK2 Enzymatic Assay Version 1 (ADP Glo); type: biochemical; details: enzyme 0.6 nM, 160 μM ATP and 140 μM HDAC5tide (each 2× final concentration); 30 minutes pre-incubation, 4 hours; ADPGlo luminescence; read-out: SIK2 ADP Glo IC50 (μM) (Test Example 1)
Sequence (Q9H0K1 whole entry, species assumed): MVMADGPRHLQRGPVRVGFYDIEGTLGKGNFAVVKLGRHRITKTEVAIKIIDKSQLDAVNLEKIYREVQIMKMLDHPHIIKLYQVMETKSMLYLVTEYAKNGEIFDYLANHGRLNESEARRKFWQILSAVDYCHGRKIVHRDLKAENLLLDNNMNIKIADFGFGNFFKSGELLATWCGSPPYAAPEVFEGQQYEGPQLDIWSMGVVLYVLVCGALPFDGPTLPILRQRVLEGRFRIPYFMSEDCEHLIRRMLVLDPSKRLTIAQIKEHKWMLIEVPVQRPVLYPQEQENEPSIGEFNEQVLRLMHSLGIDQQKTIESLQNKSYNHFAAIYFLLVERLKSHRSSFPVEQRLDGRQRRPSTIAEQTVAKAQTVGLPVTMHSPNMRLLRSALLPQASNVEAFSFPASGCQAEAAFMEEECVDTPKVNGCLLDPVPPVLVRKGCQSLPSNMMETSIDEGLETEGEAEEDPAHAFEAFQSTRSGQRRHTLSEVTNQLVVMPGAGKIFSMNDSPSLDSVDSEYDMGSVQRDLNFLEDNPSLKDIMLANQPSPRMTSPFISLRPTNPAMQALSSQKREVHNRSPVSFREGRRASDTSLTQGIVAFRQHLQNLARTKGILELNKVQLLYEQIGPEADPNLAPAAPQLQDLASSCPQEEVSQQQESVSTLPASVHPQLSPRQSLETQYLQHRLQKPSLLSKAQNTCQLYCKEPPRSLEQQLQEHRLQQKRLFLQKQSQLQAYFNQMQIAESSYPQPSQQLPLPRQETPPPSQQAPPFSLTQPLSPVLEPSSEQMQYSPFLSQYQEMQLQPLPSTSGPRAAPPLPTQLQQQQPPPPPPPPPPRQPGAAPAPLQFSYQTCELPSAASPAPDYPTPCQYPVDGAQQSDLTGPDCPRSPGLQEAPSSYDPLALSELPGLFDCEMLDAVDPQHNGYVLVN
Would you mind telling me the reported IC50 of each entry?
Lab book: enter the figure in µM, no units written.

Please indicate IC50 recorded for N#Cc1cc(-c2ccn3nc(NC(=O)C4CC4)cc3c2)c(O[C@H]2CCNC2)cn1
0.00149

Please indicate IC50 recorded for CN(C)CC1CN(c2cnc(C#N)cc2-c2ccn3nc(NC(=O)C4CC4)cc3c2)C1
0.15

Please indicate IC50 recorded for N#Cc1cc(-c2ccn3nc(NC(=O)C4CC4)cc3c2)c(OCC2CNC(=O)C2)cn1 (racemic)
0.00416

Please indicate IC50 recorded for N#Cc1cc(-c2ccn3nc(NC(=O)C4CC4)cc3c2)c(O[C@H]2CC[C@@H](O)CC2)cn1
0.000204

Please indicate IC50 recorded for CN1CC2(C1)CN(c1cnc(C#N)cc1-c1ccn3nc(NC(=O)C4CC4)cc3c1)C2
0.0688

Please indicate IC50 recorded for Cc1cc(-c2ccn3nc(Nc4ccccn4)cc3c2)c(OC[C@H]2CNCCO2)cn1
0.00201

Please indicate IC50 recorded for COc1cc(C)ccc1-c1ccn2nc(NC(=O)C3CC3)cc2c1
3.52

Please indicate IC50 recorded for CN1CCC[C@@H](Oc2cnc(C#N)cc2-c2ccn3nc(NC(=O)C4CC4)cc3c2)C1
0.00298

* * *

biological target: SIK2 (Homo sapiens); test: SIK2 Enzymatic Assay High Version 2 (High ATP); format: biochemical; settings: enzyme 6 nM, 6 mM ATP and 400 μM HDAC5tide (each 2× final concentration); 30 minutes pre-incubation, 2 hours; ADP-Glo Max luminescence; read-out: SIK2 high ATP IC50 (μM) (Test Example 2)
Would you mind telling me the reported log10(IC50) of each entry?
Note the log scale: values are log10 of IC50 expressed in µM.

Please indicate log10(IC50) recorded for Cc1cc(Nc2cc3cc(-c4cc(OC(F)F)ncc4OCC(C)(C)C#N)ccn3n2)nc(C)n1
-2.45

Please indicate log10(IC50) recorded for Cc1cc(-c2ccn3nc(Nc4cc(C)nc(N5CCOCC5)n4)cc3c2)c(OC[C@H]2OCC[C@@H]2O)cn1
-1.86

Please indicate log10(IC50) recorded for Cc1cc(-c2ccn3nc(NC(=O)C4CC4)cc3c2)c(OCC2(c3ccccc3)CNC2)cn1
-2.29

Please indicate log10(IC50) recorded for Cc1cc(Nc2cc3cc(-c4cc(C(F)(F)F)ncc4OCC(C)(C)C#N)ccn3n2)nc(C)n1
-2.60

Please indicate log10(IC50) recorded for Cc1cc(Nc2cc3cc(-c4cc(OC(F)F)ncc4OCC(C)(C)O)ccn3n2)nc(C)n1
-2.50

Please indicate log10(IC50) recorded for Cc1cc(Nc2cc3cc(-c4cc(C(F)F)ncc4OCC(C)(C)O)ccn3n2)nc(C)n1
-1.18

Please indicate log10(IC50) recorded for COc1cc(Nc2cc3cc(-c4cc(C)ncc4O[C@H]4CC[C@H](O)CC4)ccn3n2)cc(OC)c1C(=O)NCC(F)(F)F
-1.40

* * *

Would you mind telling me the reported log10(IC50) of each entry?
target: SIK2 (Homo sapiens, UniProt Q9H0K1); test: SIK2 Enzymatic Assay High Version 2 (High ATP); format: biochemical
Note the log scale: values are log10 of IC50 expressed in µM.

Please indicate log10(IC50) recorded for CNC(=O)c1cccc(Nc2cc3cc(-c4cc(C)ncc4O[C@H]4C[C@H]5COC[C@@H](C4)N5C)ccn3n2)n1 [Example 407]
-2.07

Please indicate log10(IC50) recorded for Cc1cc(-c2ccn3nc(Nc4ccc(C(=O)N(C)C)cn4)cc3c2)c(O[C@H]2C[C@H]3COC[C@@H](C2)N3)cn1 [Example 383]
-3.02

Please indicate log10(IC50) recorded for [2H]C([2H])([2H])N1CC[C@@H]1COc1cnc(C)cc1-c1ccn2nc(NC(=O)C3CC3)cc2c1 [Example 576]
-1.14

Please indicate log10(IC50) recorded for Cc1cc(Nc2cc3cc(-c4cc(Cl)ncc4O[C@@H]4[C@@H]5CO[C@H]4CN5)ccn3n2)nc(C)n1 [Example 495]
-1.87

Please indicate log10(IC50) recorded for C[C@@H](O)COc1cnc(C#N)cc1-c1ccn2nc(NC(=O)C3CC3)cc2c1 [Example 94]
-0.78

Please indicate log10(IC50) recorded for CNC(=O)c1ccc(Nc2cc3cc(-c4cc(C)ncc4O[C@H]4C[C@H]5COC[C@@H](C4)N5CC(C)(C)O)ccn3n2)nc1 [Example 532]
-1.87

Please indicate log10(IC50) recorded for Cc1cc(-c2ccn3nc(Nc4ccc(C)nn4)cc3c2)c(O[C@@H]2[C@@H]3CO[C@H]2CN3)cn1 [Example 523]
-2.34

Please indicate log10(IC50) recorded for Cc1cc(-c2ccn3nc(NC(=O)C4CC4)cc3c2)c(OC[C@H]2CC[C@@H](O)CC2)cn1 [Example 148]
-1.23

Please indicate log10(IC50) recorded for CNC(=O)c1c(C)cc(Nc2cc3cc(-c4cc(C)ncc4O[C@H]4C[C@H]5COC[C@@H](C4)N5C(C)=O)ccn3n2)nc1C [Example 358]
-2.11

Please indicate log10(IC50) recorded for N#Cc1cc(-c2ccn3nc(NC(=O)C4CC4)cc3c2)c(N2CC(O)C2)cn1 [Example 70]
-0.39

Please indicate log10(IC50) recorded for Cc1cc(-c2cn3cc(NC(=O)C4CC4)nc3cn2)c(O[C@H]2C[C@H]3COC[C@@H](C2)N3)cn1 [Example 505]
-1.92

Please indicate log10(IC50) recorded for CNC(=O)c1cccc(Nc2cc3cc(-c4cc(C)ncc4O[C@H]4C[C@H]5COC[C@@H](C4)N5)ccn3n2)n1 [Example 367]
-2.17

Please indicate log10(IC50) recorded for Cc1cc(-c2ccn3nc(Nc4ccn(C)n4)cc3c2)c(OC[C@@H]2CNCCO2)cn1 [Example 129]
-2.08

Please indicate log10(IC50) recorded for Cc1cc(-c2ccn3nc(NC(=O)C4CC4)cc3c2)c(OC2CN(C)C2)cn1 [Example 115]
-0.80

Please indicate log10(IC50) recorded for N#Cc1cc(-c2ccn3nc(NC(=O)C4CC4)cc3c2)c(O[C@@H]2CNC[C@H](C(F)(F)F)C2)cn1 [Example 95]
-2.59

Please indicate log10(IC50) recorded for CC(=O)N1[C@@H]2COC[C@H]1C[C@@H](Oc1cnc(C)cc1-c1ccn3nc(Nc4cc(C)nc(C)n4)cc3c1)C2 [Example 627]
-1.19

Please indicate log10(IC50) recorded for N#Cc1cc(-c2ccn3nc(NC(=O)C4CC4)cc3c2)c(O[C@H]2C[C@@H](CO)C2)cn1 [Example 69]
-1.42

Please indicate log10(IC50) recorded for N#CCN[C@H]1C[C@@H](COc2cnc(C#N)cc2-c2ccn3nc(NC(=O)C4CC4)cc3c2)C1 [Example 596]
-1.84

Please indicate log10(IC50) recorded for N#Cc1cc(-c2ccn3nc(NC(=O)C4CC4)cc3c2)c(OCC2CCC(O)(C(F)(F)F)CC2)cn1 (racemic) [Example 178]
-1.89

Please indicate log10(IC50) recorded for N#Cc1cc(-c2ccn3nc(NC(=O)C4CC4)cc3c2)c(OC[C@H]2C[C@@H](NC3CC3)C2)cn1 [Example 597]
-1.52

Please indicate log10(IC50) recorded for N#Cc1cc(-c2ccn3nc(NC(=O)C4CC4)cc3c2)c(O[C@@H]2CCNC2)cn1 [Example 594]
-2.04

Please indicate log10(IC50) recorded for N#Cc1cc(-c2ccn3nc(NC(=O)C4CC4)cc3c2)c(OCC2(N)CCC2)cn1 [Example 44]
-1.59

Please indicate log10(IC50) recorded for Cc1cc(-c2cn3cc(NC(=O)C4CC4)nc3cn2)c(OCC(C)(C)C#N)cn1 [Example 508]
-1.27

Please indicate log10(IC50) recorded for Cn1ccc(Nc2cc3cc(-c4cc(C#N)ccc4OC[C@H]4CNCCO4)ccn3n2)n1 [Example 566]
-1.00

Please indicate log10(IC50) recorded for CC(=O)N1CCC(Oc2cnc(C#N)cc2-c2ccn3nc(NC(=O)C4CC4)cc3c2)C1 (single isomer, unassigned) [Example 57]
-0.58

Source of measurements: patent US20240158392A1
